# target_or_system: Factor X (FX), P00742
# Sequence (P00742 whole entry, looked up): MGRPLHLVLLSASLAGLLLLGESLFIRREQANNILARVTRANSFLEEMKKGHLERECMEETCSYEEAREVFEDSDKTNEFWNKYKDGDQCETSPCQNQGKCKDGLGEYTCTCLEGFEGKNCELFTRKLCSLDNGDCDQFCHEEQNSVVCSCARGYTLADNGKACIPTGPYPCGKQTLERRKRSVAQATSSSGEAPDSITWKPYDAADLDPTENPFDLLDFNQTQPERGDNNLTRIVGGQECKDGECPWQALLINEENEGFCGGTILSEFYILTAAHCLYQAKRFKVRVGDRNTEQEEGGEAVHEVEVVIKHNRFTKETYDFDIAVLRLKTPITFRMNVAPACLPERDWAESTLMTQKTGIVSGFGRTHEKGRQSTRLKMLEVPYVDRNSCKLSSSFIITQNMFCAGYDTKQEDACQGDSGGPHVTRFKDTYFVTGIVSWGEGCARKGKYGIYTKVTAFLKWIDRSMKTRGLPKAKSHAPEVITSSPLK
readout_name: kcat/KM for FX activation (Xase: FVIIIa, PC/PS vesicles, Ca2+) (M⁻¹ s⁻¹)

{"protein": "FIXa-K247N/N249S/R318Y/T343R/E410N (protein) chain 1: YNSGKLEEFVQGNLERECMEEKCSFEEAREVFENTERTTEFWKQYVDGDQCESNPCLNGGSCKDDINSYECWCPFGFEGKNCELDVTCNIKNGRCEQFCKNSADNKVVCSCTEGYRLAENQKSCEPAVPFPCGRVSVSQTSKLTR chain 2: VVGGEDAKPGQFPWQVVLNGKVDAFCGGSIVNEKWIVTAAHCVETGVKITVVAGEHNIEETEHTEQNRSVIRIIPHHNYNAAINKYNHDIALLELDEPLVLNSYVTPICIADKEYTNIFLKFGSGYVSGWGRVFHKGYSALVLQYLRVPLVDRATCLRSTKFRIYNNMFCAGFHEGGRDSCQGDSGGPHVTEVEGTSFLTGIISWGEECAMKGKYGIYTKVSRYVNWIKNKTKLT", "endpoint_value": "2e+08"}
